For reference, AC50 measured on Progesterone receptor (Homo sapiens, UniProt P06401):

Worked cases, AC50 given:
CC(C)C[C@H]1C(=O)N2CCC[C@H]2[C@]2(O)O[C@](NC(=O)[C@@H]3C=C4c5cccc6[nH]c(Br)c(c56)C[C@H]4N(C)C3)(C(C)C)C(=O)N12: > 30 µM
CNS(=O)(=O)Cc1ccc2[nH]cc(CCN(C)C)c2c1: > 30 µM
CC[C@H]1OC(=O)[C@H](C)[C@@H](O[C@H]2C[C@@](C)(OC)[C@@H](O)[C@H](C)O2)[C@H](C)[C@@H](O[C@@H]2O[C@H](C)C[C@H](N(C)C)[C@H]2O)[C@](C)(O)C[C@@H](C)CN(C)[C@H](C)[C@@H](O)[C@]1(C)O: > 30 µM
O=[N+]([O-])O[C@@H]1CO[C@H]2[C@@H]1OC[C@@H]2O [ISOSORBIDE MONONITRATE]: > 30 µM
COc1ccc(C(=O)Nc2ccccc2CCC2CCCCN2C)cc1 (stereo unspecified) [ENCAINIDE]: > 30 µM

--- query ---
Memo: `CCc1c(Cl)c(O)c(Cl)c(O)c1C(=O)O[C@H]1[C@H](O)[C@H](OC)[C@H](OC/C2=C\C=C\C[C@H](O)/C(C)=C/[C@H](CC)[C@@H](O[C@@H]3OC(C)(C)[C@@H](OC(=O)C(C)C)[C@H](O)[C@@H]3O)/C(C)=C/C(C)=C/C[C@@H]([C@@H](C)O)OC2=O)O[C@@H]1C` , reported AC50: 11.3 µM
